FYI, the data here is from paper PMC7327521.

subject-of-test: T1, tandem SH2 domain of C. glabrata Spt6 (Spt6-tSH2) (C. glabrata, UniProt Q6FLB1 1250-1444)
T1 sequence (looked up): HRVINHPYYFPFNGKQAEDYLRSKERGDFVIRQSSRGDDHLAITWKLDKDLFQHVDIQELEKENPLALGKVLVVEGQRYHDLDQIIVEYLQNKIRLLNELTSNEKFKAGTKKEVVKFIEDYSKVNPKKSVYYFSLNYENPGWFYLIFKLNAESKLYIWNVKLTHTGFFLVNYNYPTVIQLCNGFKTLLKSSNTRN
experiment: fluorescence polarisation
pKd: −log10 of the molar value. Square brackets hold non-standard residues; d marks the D form. Ends that are not written are not given here. pY = N[C@@H](Cc1ccc(OP(=O)(O)O)cc1)C(=O)O; pT = C[C@@H](OP(=O)(O)O)[C@H](N)C(=O)O; pS = N[C@@H](COP(=O)(O)O)C(=O)O
Cut-off 5 on pKd, inclusive. At or above means Satisfied; below means Not satisfied.

{"binder": "{5,6‑FAM}-PS[pY]SPTSPS [(pY1-CTD)1]", "class-assignment": "Not satisfied"}
{"binder": "DDDEDGYNPYTL [Nrd1 Interaction Motif (NIM) peptide from Trf4]", "class-assignment": "Satisfied"}
{"binder": "{5,6‑FAM}-PSY[pS]P[pT]SPSYSPTSPS [PS(YpSPpTSPS)(YSPTSPS)]", "class-assignment": "Satisfied"}
{"binder": "{5,6‑FAM}-PS[pY][pS]PTSPS[pY][pS]PTSPS [(pY1pS2-CTD)2]", "class-assignment": "Satisfied"}
{"binder": "{5,6‑FAM}-PS[pY]SPTSPSYSPTSPS [PS(pYSPTSPS)(YSPTSPS)]", "class-assignment": "Not satisfied"}
{"binder": "{5,6‑FAM}-PS[pY]SPT[pS]PS[pY]SPT[pS]PS [(pY1pS5-CTD)2]", "class-assignment": "Satisfied"}
{"binder": "{5,6‑FAM}-PS[pY]SPTSPS[pY]SPTSPS [(pY1-CTD)2, FAM-labelled tyrosine-phosphorylated CTD diheptad]", "class-assignment": "Satisfied"}
{"binder": "{5,6‑FAM}-PSYSPTSPS[pY]SPTSPS [PS(YSPTSPS)(pYSPTSPS)]", "class-assignment": "Not satisfied"}
